biological target: UniProt:P11712
Sequence (P11712 whole entry): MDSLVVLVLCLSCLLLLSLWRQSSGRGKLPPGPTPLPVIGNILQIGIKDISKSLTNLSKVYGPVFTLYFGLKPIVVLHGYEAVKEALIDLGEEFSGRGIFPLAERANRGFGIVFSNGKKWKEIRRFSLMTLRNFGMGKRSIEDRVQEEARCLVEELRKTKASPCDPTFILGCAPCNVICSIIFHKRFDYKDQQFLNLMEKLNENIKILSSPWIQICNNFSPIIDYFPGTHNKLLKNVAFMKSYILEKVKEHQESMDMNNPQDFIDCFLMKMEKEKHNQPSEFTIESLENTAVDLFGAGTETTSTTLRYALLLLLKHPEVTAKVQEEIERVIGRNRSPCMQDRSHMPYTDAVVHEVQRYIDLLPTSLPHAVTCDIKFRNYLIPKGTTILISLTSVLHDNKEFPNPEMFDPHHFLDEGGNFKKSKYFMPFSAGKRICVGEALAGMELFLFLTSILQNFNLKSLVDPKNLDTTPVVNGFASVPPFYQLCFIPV
metric_name: pIC50
Give bare numbers, as −log10 of the molar value.

Task: Bench note: what pIC50 did O=C(c1ccc(F)c(F)c1)N1CCN2C(=O)c3ccccc3[C@@]12c1ccc(Cl)cc1 show?
Result: 5.13

----------
target: Muscarinic acetylcholine receptor M5 (Homo sapiens); assay: Negative allosteric modulation of human muscarinic acetylcholine receptor M5 expressed in CHO cells assessed as reduction of acetylcholine-induced calcium mobilization at 10 uM incubated for 150 secs prior to acetylcholine induction by Fluo-4 AM staining-based fluorescence assay relative to control; format: functional, cell-based; set-up: scale not given: the % may be the effect or the level left
Hi there, I'd appreciate the recorded Activity for every entry that follows.
Numbers only, in %.

The examples below pair each entry with its known result.
O=C(c1ccc(SC(F)(F)F)cc1)N1CCN2C(=O)c3ccccc3C12c1ccc(Cl)cc1 (stereo not drawn); -9.2
O=C(c1ccc(F)cc1)N1CCN2C(=O)c3ccccc3C12c1ccccc1 (stereo not drawn); 41

Task: Give the measured Activity of Cc1ccc(C23c4ccccc4C(=O)N2CCN3C(=O)c2ccc(SC(F)(F)F)cc2)cc1 (stereo not drawn) .
Result: 4.1

----------
Answer each item with its documented Activity.
biological target: Muscarinic acetylcholine receptor M5 (Homo sapiens) (UniProt P08912); test: Negative allosteric modulation of human muscarinic acetylcholine receptor M5 expressed in CHO cells assessed as reduction of acetylcholine-induced calcium mobilization at 10 uM incubated for 150 secs prior to acetylcholine induction by Fluo-4 AM staining-based fluorescence assay relative to control; format: functional, cell-based; set-up: scale not given: the % may be the effect or the level left
Sequence (P08912 whole entry): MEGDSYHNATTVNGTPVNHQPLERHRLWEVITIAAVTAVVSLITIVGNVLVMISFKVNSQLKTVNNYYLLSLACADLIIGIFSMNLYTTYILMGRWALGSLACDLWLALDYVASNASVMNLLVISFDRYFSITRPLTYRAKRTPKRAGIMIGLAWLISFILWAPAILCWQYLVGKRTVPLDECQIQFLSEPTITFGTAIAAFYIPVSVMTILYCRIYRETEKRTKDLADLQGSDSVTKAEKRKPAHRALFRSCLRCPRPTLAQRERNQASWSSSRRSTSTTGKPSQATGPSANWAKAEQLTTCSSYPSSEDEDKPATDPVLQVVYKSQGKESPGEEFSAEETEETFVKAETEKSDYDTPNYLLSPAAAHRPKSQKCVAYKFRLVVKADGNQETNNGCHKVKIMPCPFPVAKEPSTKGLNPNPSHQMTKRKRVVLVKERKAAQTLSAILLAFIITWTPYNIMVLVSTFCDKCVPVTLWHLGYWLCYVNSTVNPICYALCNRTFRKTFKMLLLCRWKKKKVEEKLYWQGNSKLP
Numbers only, in %.

O=C(c1cc(F)cc(F)c1)N1CCN2C(=O)c3ccccc3C12c1ccccc1 (centres undefined); -2.2

Provide each entry's Activity from the list below.
1. O=C(c1ccc(C(F)(F)F)cc1)N1CCN2C(=O)c3ccccc3C12c1ccccc1 (centres undefined)
2. O=C(c1ccc(SC(F)(F)F)cc1)N1CCN2C(=O)c3ccccc3C12c1ccccc1 (centres undefined)
3. O=C(c1ccc(C(F)(F)F)cc1)N1CCN2C(=O)c3ccccc3C12c1ccc(Cl)cc1 (centres undefined)
4. Cc1ccc(C(=O)N2CCN3C(=O)c4ccccc4C23c2ccc(Cl)cc2)cc1 (centres undefined)

Result:
1. -2.4
2. 0.5
3. 0.7
4. 0.1

----------
Please go through the items and note down their IC50.
Molecular target: Muscarinic acetylcholine receptor M5 (Rattus norvegicus, UniProt P08911)
Sequence (P08911 whole entry): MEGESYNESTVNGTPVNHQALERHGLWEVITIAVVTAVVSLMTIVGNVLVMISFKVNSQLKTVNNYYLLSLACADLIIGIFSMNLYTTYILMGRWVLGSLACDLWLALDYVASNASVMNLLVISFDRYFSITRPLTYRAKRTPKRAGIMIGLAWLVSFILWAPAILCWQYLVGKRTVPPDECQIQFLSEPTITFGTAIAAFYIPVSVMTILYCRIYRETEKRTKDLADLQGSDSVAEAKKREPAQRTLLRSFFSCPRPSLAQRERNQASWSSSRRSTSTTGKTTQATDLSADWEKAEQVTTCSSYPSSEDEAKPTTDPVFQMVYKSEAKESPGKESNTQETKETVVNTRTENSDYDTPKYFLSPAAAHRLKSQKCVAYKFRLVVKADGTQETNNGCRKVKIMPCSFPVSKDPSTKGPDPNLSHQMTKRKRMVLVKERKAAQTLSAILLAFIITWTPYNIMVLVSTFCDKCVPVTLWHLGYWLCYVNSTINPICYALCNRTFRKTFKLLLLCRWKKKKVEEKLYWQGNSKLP
Assay: Negative allosteric modulation of rat muscarinic acetylcholine receptor M5 expressed in CHO cells assessed as inhibition of acetylcholine-induced calcium mobilization incubated for 150 secs prior to acetylcholine induction by Fluo-4 AM staining-based fluorescence assay
One number for each entry, in µM.

O=C(c1ccc(F)c(F)c1)N1CCN2C(=O)c3ccccc3C12c1ccccc1 (configuration not stated); 2.1

API: the following record is the query input.
Task: What IC50 value was documented for this molecule, O=C(c1ccc(F)cc1)N1CCN2C(=O)c3ccccc3C12c1ccccc1 (configuration not stated) ?
Result: 5.67
